The following binders are shown together with reported Kd values.
target: GST-MNK1b (human, UniProt Q9BUB5-3 1-347); experiment: ELONA
Report the figure in nM without appending any unit label.

binder	number
apMNK2F (ssDNA) DNA: GCGGATGAAGACTGGTGTGGGGTGGGCGGGCGGGGGTGGGGGTGGTATGGCGCGTTGGCCCTAAATACGAGCAAC	1.79

Consider the additional binder presented here.
Query block: Give Kd for the following binder: apMNK3R (ssDNA) DNA: GTTGCTCGTATTTAGGGCGGGGGTGGGCGGATTTCGCAGGTGGCGTGTACACCAGTCTTCATCCGC
Result block: 6.36
